- experiment notes: Cytotoxicity assay (MTT)
- Type: cell-based
- condition details: mouse, read-out: RAW 264.7 CC50 ± SE
value type: CC50 at 48 h
Report field: quantity (unit follows the number).

State the recorded CC50 at 48 h for this entry: O=C(C=Cc1ccc([N+](=O)[O-])cc1)c1ccc(Br)cc1
4.53 mM

* * *

- Tested on: Leishmania infantum intracellular amastigotes
- experiment notes: Activity against intracellular amastigotes (promastigote recovery assay)
- Format: cell-based
- condition details: CC50 host cell / IC50 intracellular amastigotes
// values below are reported Selectivity Index AMA
Enter the number alone.

Worked cases, answers included:
[[record]]
record_smiles = "COc1ccc(C(=O)C=Cc2ccc([N+](=O)[O-])cc2)cc1"
endpoint_result = 26.2

[[record]]
record_smiles = "COc1ccc(/C=C/C(=O)c2ccccc2Cl)cc1"
endpoint_result = 46.0

[[record]]
record_smiles = "O=C(C=Cc1ccc(F)cc1)c1ccccc1Cl"
endpoint_result = 4.3


# context switch: different molecule, same Selectivity Index AMA
State the recorded Selectivity Index AMA for this entry: O=C(C=Cc1ccc([N+](=O)[O-])cc1)c1ccc(Br)cc1
107.1

Origin of values: paper PMC7841069
